tested on: A549; assay: Cytotoxicity against human A549 cells by MTT assay; type: functional, cell-based
experimental.readout: IC50 (µM)

CCNC(=O)c1noc(-c2cc(Cl)c(O)cc2O)c1-c1ccc(OC)cc1    0.223
CCNC(=O)c1noc(-c2cc(C(C)C)c(O)cc2O)c1-c1ccc(S(C)(=O)=O)cc1    0.00865
CCNC(=O)c1noc(-c2cc(C(C)C)c(O)cc2O)c1-c1ccc(P(C)(C)=O)cc1    0.73
CCNC(=O)c1noc(-c2cc(C(C)C)c(O)cc2O)c1-c1ccc([N+](=O)[O-])cc1    0.0162

* * *

test: Cytotoxicity against human 95-D cells by MTT assay; assay type: functional, cell-based
experimental.readout: IC50

CCNC(=O)c1noc(-c2cc(C(C)C)c(O)cc2O)c1-c1ccc(P(C)(C)=O)cc1    676 nM
CCNC(=O)c1noc(-c2cc(C(C)C)c(O)cc2O)c1-c1ccc([N+](=O)[O-])cc1    2.91 nM
CCNC(=O)c1noc(-c2cc(C(C)C)c(O)cc2O)c1-c1ccc(S(C)(=O)=O)cc1    1.69 nM
